- Test Details: activity coefficient (dimensionless); of the first substance listed, at infinite dilution; xn = mol fraction of the nth substance listed
- Settings: 328.15 K; 101.33 kPa; Liquid; Chromatography; x1 = 0
Label scheme, based on activity coefficient: range A (below 2), range B (2 to below 6), range C (6 or more)

[[record]]
molecule = "C1=CCCCC1 [cyclohexene] + CC[N+](C)(CC)CCOC.O=S(=O)([N-]S(=O)(=O)C(F)(F)F)C(F)(F)F"
class_assignment = "range B"

[[record]]
molecule = "CC(C)O [propan-2-ol] + CC[N+](C)(CC)CCOC.O=S(=O)([N-]S(=O)(=O)C(F)(F)F)C(F)(F)F"
class_assignment = "range A"

[[record]]
molecule = "CCCCCCCCCC [decane] + CC[N+](C)(CC)CCOC.O=S(=O)([N-]S(=O)(=O)C(F)(F)F)C(F)(F)F"
class_assignment = "range C"

[[record]]
molecule = "C1CCCCCC1 [cycloheptane] + CC[N+](C)(CC)CCOC.O=S(=O)([N-]S(=O)(=O)C(F)(F)F)C(F)(F)F"
class_assignment = "range C"

[[record]]
molecule = "C=CCCCC [hex-1-ene] + CC[N+](C)(CC)CCOC.O=S(=O)([N-]S(=O)(=O)C(F)(F)F)C(F)(F)F"
class_assignment = "range C"

[[record]]
molecule = "CCCCO [butan-1-ol] + CC[N+](C)(CC)CCOC.O=S(=O)([N-]S(=O)(=O)C(F)(F)F)C(F)(F)F"
class_assignment = "range B"

[[record]]
molecule = "c1ccccc1 [benzene] + CC[N+](C)(CC)CCOC.O=S(=O)([N-]S(=O)(=O)C(F)(F)F)C(F)(F)F"
class_assignment = "range A"

[[record]]
molecule = "CC#N [acetonitrile] + CC[N+](C)(CC)CCOC.O=S(=O)([N-]S(=O)(=O)C(F)(F)F)C(F)(F)F"
class_assignment = "range A"

[[record]]
molecule = "C1CCCCCCC1 [cyclooctane] + CC[N+](C)(CC)CCOC.O=S(=O)([N-]S(=O)(=O)C(F)(F)F)C(F)(F)F"
class_assignment = "range C"

[[record]]
molecule = "C#CCCC [1-pentyne] + CC[N+](C)(CC)CCOC.O=S(=O)([N-]S(=O)(=O)C(F)(F)F)C(F)(F)F"
class_assignment = "range B"

[[record]]
molecule = "CCC(C)(C)OC [2-methoxy-2-methylbutane] + CC[N+](C)(CC)CCOC.O=S(=O)([N-]S(=O)(=O)C(F)(F)F)C(F)(F)F"
class_assignment = "range B"

[[record]]
molecule = "CCCOCCC [dipropyl ether] + CC[N+](C)(CC)CCOC.O=S(=O)([N-]S(=O)(=O)C(F)(F)F)C(F)(F)F"
class_assignment = "range C"

[[record]]
molecule = "C=Cc1ccccc1 [styrene] + CC[N+](C)(CC)CCOC.O=S(=O)([N-]S(=O)(=O)C(F)(F)F)C(F)(F)F"
class_assignment = "range A"

[[record]]
molecule = "CCC(=O)CC [pentan-3-one] + CC[N+](C)(CC)CCOC.O=S(=O)([N-]S(=O)(=O)C(F)(F)F)C(F)(F)F"
class_assignment = "range A"

[[record]]
molecule = "Cc1ccccc1C [1,2-dimethylbenzene] + CC[N+](C)(CC)CCOC.O=S(=O)([N-]S(=O)(=O)C(F)(F)F)C(F)(F)F"
class_assignment = "range A"

[[record]]
molecule = "CC(C)OC(C)C [diisopropyl ether] + CC[N+](C)(CC)CCOC.O=S(=O)([N-]S(=O)(=O)C(F)(F)F)C(F)(F)F"
class_assignment = "range C"

[[record]]
molecule = "CCCCC(C)=O [2-hexanone] + CC[N+](C)(CC)CCOC.O=S(=O)([N-]S(=O)(=O)C(F)(F)F)C(F)(F)F"
class_assignment = "range A"

[[record]]
molecule = "COC(C)(C)C [2-methoxy-2-methylpropane] + CC[N+](C)(CC)CCOC.O=S(=O)([N-]S(=O)(=O)C(F)(F)F)C(F)(F)F"
class_assignment = "range B"

[[record]]
molecule = "C1CCOC1 [tetrahydrofuran] + CC[N+](C)(CC)CCOC.O=S(=O)([N-]S(=O)(=O)C(F)(F)F)C(F)(F)F"
class_assignment = "range A"

[[record]]
molecule = "CCOCC [diethyl ether] + CC[N+](C)(CC)CCOC.O=S(=O)([N-]S(=O)(=O)C(F)(F)F)C(F)(F)F"
class_assignment = "range B"

[[record]]
molecule = "Cc1cccc(C)c1 [1,3-dimethylbenzene] + CC[N+](C)(CC)CCOC.O=S(=O)([N-]S(=O)(=O)C(F)(F)F)C(F)(F)F"
class_assignment = "range B"

[[record]]
molecule = "CC(C)CC(C)(C)C [2,2,4-trimethylpentane] + CC[N+](C)(CC)CCOC.O=S(=O)([N-]S(=O)(=O)C(F)(F)F)C(F)(F)F"
class_assignment = "range C"

[[record]]
molecule = "CCCCCCCCC [nonane] + CC[N+](C)(CC)CCOC.O=S(=O)([N-]S(=O)(=O)C(F)(F)F)C(F)(F)F"
class_assignment = "range C"

[[record]]
molecule = "CC1CCCCC1 [methylcyclohexane] + CC[N+](C)(CC)CCOC.O=S(=O)([N-]S(=O)(=O)C(F)(F)F)C(F)(F)F"
class_assignment = "range C"

[[record]]
molecule = "Cc1ccccc1 [toluene] + CC[N+](C)(CC)CCOC.O=S(=O)([N-]S(=O)(=O)C(F)(F)F)C(F)(F)F"
class_assignment = "range A"

[[record]]
molecule = "C#CCCCCC [1-heptyne] + CC[N+](C)(CC)CCOC.O=S(=O)([N-]S(=O)(=O)C(F)(F)F)C(F)(F)F"
class_assignment = "range B"

[[record]]
molecule = "CC(C)=O [acetone] + CC[N+](C)(CC)CCOC.O=S(=O)([N-]S(=O)(=O)C(F)(F)F)C(F)(F)F"
class_assignment = "range A"

[[record]]
molecule = "CO [methanol] + CC[N+](C)(CC)CCOC.O=S(=O)([N-]S(=O)(=O)C(F)(F)F)C(F)(F)F"
class_assignment = "range A"

[[record]]
molecule = "CCC(C)CC [3-methylpentane] + CC[N+](C)(CC)CCOC.O=S(=O)([N-]S(=O)(=O)C(F)(F)F)C(F)(F)F"
class_assignment = "range C"

